# NanoBRET Fold Response per entry
Biological target: PTGDR (Homo sapiens)
Construct: purchased Promega (in-house HiBiT-GPCR construct library, NanoBRET)
Sequence (Q13258 whole entry): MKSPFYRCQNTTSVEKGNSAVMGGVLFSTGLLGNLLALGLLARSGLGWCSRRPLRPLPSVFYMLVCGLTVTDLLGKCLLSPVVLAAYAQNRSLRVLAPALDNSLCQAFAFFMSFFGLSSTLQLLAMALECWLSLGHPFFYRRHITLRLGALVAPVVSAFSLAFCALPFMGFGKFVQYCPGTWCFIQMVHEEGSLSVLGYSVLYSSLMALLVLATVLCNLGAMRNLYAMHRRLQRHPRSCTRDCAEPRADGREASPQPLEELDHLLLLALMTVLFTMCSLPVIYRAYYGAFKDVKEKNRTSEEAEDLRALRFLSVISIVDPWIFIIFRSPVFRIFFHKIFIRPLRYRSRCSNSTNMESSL
Experiment: NanoBRET screen HiBiT-PTGDR in HEK293
Assay type: binding
Conditions: PTGDR; tracer 1μM
VALUE TYPE: NanoBRET Fold Response

[
  {
    "COMPOUND": "COc1ccccc1N1CCN(CCCCN2C(=O)c3ccc(CNC(=O)CCOCCOCCOCCOCCNC(=O)CCc4ccc5n4[B-](F)(F)[N+]4=C(c6ccc[nH]6)C=CC4=C5)cc3C2=O)CC1 [NAN-190-2-NB590]",
    "VALUE TYPE": "NanoBRET Fold Response",
    "RECORDED RESULT": 1.01
  },
  {
    "COMPOUND": "Cc1nc2n(c(=O)c1CCN1CCC(c3noc4cc(F)ccc34)CC1)CCCC2OC(=O)NCCOCCOCCOCCOCCNC(=O)CCc1ccc2n1[B-](F)(F)[N+]1=C(c3ccc[nH]3)C=CC1=C2 (stereo not drawn) [Risperidone-2-NB590]",
    "VALUE TYPE": "NanoBRET Fold Response",
    "RECORDED RESULT": 0.93
  },
  {
    "COMPOUND": "Cc1cc2c(s1)Nc1ccccc1N=C2N1CCN(CCCNC(=O)CCOCCOCCOCCOCCNC(=O)CCc2ccc3n2[B-](F)(F)[N+]2=C(c4ccc[nH]4)C=CC2=C3)CC1 [Olanzapine-a-2-NB590]",
    "VALUE TYPE": "NanoBRET Fold Response",
    "RECORDED RESULT": 1.09
  },
  {
    "COMPOUND": "N#CN=C(NCCCOc1cccc(CN2CCCCC2)c1)NCCNC(=O)CCOCCOCCOCCOCCNC(=O)CCc1ccc2n1[B-](F)(F)[N+]1=C(c3ccc[nH]3)C=CC1=C2 [Aminopotentidine-2-NB590]",
    "VALUE TYPE": "NanoBRET Fold Response",
    "RECORDED RESULT": 0.79
  },
  {
    "COMPOUND": "CCCn1c(=O)c2[nH]c(-c3ccc(OCC(=O)NCCNC(=O)CCOCCNC(=O)c4ccc(CNC(=O)CCc5ccc6n5[B-](F)(F)[N+]5=C(c7ccc[nH]7)C=CC5=C6)cc4)cc3)nc2n(CCC)c1=O [XAC-3-NB590]",
    "VALUE TYPE": "NanoBRET Fold Response",
    "RECORDED RESULT": 1.06
  },
  {
    "COMPOUND": "COc1ccccc1N1CCN(CCCCN2C(=O)c3ccc(CNC(=O)CCOCCNC(=O)c4ccc(CNC(=O)CCc5ccc6n5[B-](F)(F)[N+]5=C(c7ccc[nH]7)C=CC5=C6)cc4)cc3C2=O)CC1 [NAN-190-3-NB590]",
    "VALUE TYPE": "NanoBRET Fold Response",
    "RECORDED RESULT": 0.98
  }
]
